Source of measurements: PubChem BioAssay (NCI)

test system: COLO 205 colon; assay: NCI tumour cell line growth inhibition, 48 h; in the data active = GI50 below about 0.43 µM; inactive = the rest
Labels: active, inactive

{"compound": "NC(=NCCCOc1ccc(Cl)cc1)Nc1ccc(Cl)cc1", "assayed.system": "COLO 205 colon", "group": "inactive"}
{"compound": "CC(=O)c1ccc(NC(=O)CSc2nnc(-c3cc(-c4ccc(C)cc4)nc4ccccc34)o2)cc1", "assayed.system": "COLO 205 colon", "group": "inactive"}
{"compound": "COc1cc(NCCCCN=C(N)NC(N)=NC(C)C)c2ncccc2c1", "assayed.system": "COLO 205 colon", "group": "inactive"}
{"compound": "CC(=O)c1c(C(F)(F)F)n([O-])c2ccc(Cl)cc2[n+]1=O", "assayed.system": "COLO 205 colon", "group": "inactive"}
{"compound": "CN(C)c1ccc(C(=C2C=CC(=[N+](C)C)C=C2)c2ccc(N(C)C)cc2)cc1 (tested in a mixture with another compound)", "assayed.system": "COLO 205 colon", "group": "active"}
{"compound": "COc1ccc(Nn2c(SCC(=O)Nc3nc(-c4ccc(Cl)cc4)cs3)nc(C)c2C)cc1", "assayed.system": "COLO 205 colon", "group": "inactive"}
{"compound": "C=C(C)[C@@H]1CC[C@]2(C)[C@H](C(=O)C=C3[C@@H]4C[C@](C)(C(=O)N5CCN(C)CC5)CC[C@]4(C)CC[C@]32C)[C@@]1(C)CCC#N", "assayed.system": "COLO 205 colon", "group": "inactive"}
{"compound": "CN1CCCNc2c(c(=O)c2=O)NCCCN(C)CCCNc2c(c(=O)c2=O)NCCCN(C)CCCNc2c(c(=O)c2=O)NCCCN(C)CCCNc2c(c(=O)c2=O)NCCCN(C)CCCNc2c(c(=O)c2=O)NCCCN(C)CCCNc2c(c(=O)c2=O)NCCCN(C)CCCNc2c(c(=O)c2=O)NCCC1", "assayed.system": "COLO 205 colon", "group": "inactive"}
{"compound": "Cc1nc2sccn2c(=O)c1CCN1CCC(=C(c2ccc(F)cc2)c2ccc(F)cc2)CC1", "assayed.system": "COLO 205 colon", "group": "inactive"}

---

Below, each entry is listed alongside its reported GI50.
test system: SK-MEL-5 melanoma; assay: NCI tumour cell line growth inhibition, 48 h
property.measured: GI50

{"smiles": "COc1cc(NCCCCN=C(N)NC(N)=NC(C)C)c2ncccc2c1", "property.measured": "GI50", "reported.value": "2840 nM"}
{"smiles": "N#Cc1c(-c2ccc(Cl)cc2)n(O)c2ccccc12", "property.measured": "GI50", "reported.value": "557 nM"}
{"smiles": "COc1cc(/C=C/c2cc(/C=C/c3ccc(O)c(OC)c3)n(-c3c(C)cccc3C)c(=O)n2)ccc1O", "property.measured": "GI50", "reported.value": "559 nM"}
{"smiles": "Cc1cccc(Oc2nccc(-c3c(-c4ccc(F)cc4)ncn3C3CCNCC3)n2)c1C", "property.measured": "GI50", "reported.value": "3610 nM"}
{"smiles": "O=C(OCc1ccccc1)N1CCN(/[N+]([O-])=N/Oc2ccc([N+](=O)[O-])cc2[N+](=O)[O-])CC1", "property.measured": "GI50", "reported.value": "6430 nM"}

---

test system: SK-MEL-28 melanoma; assay: NCI tumour cell line growth inhibition, 48 h
Where a SMILES comes first, the peptide text is derived from it. [ ]: non-standard residue; d: D form. The star is where a group is joined. AllylGly = C=CC[CH](N)C(=O)O; Boc = CC(C)(C)OC(=O)*; OtBu = CC(C)(C)O*
property.measured: TGI

{"molecule": "COc1ccc(N2C(=O)C3ON(C(C(N)=O)c4ccccc4)C(c4ccc(-c5ccccc5)cc4)C3C2=O)cc1 (centres undefined)", "reported.value": "> 50 µM"}
{"molecule": "C=CCC(NC(=O)C(CC(=O)OC(C)(C)C)NC(=O)OC(C)(C)C)C(=O)OC (centres undefined) (Boc-Asp(OtBu)-[AllylGly]-OMe; configuration not given here)", "reported.value": "> 100 µM"}
{"molecule": "CC(C)(C)[Si](C)(C)OCC1OC(n2cnc3c(NC(=O)c4ccccc4)ncnc32)CC1O (centres undefined)", "reported.value": "87.4 µM"}
{"molecule": "COc1ccc(C2C3C(=O)C=CC(=O)C3[C@@H]2C)cc1OC (some centres undefined)", "reported.value": "> 100 µM"}
{"molecule": "COc1ccc(NC(=O)n2nc(N)c3ccccc32)cc1OC", "reported.value": "> 100 µM"}
{"molecule": "COc1cc(/C=C/c2cc(/C=C/c3ccc(O)c(OC)c3)n(-c3c(C)cccc3C)c(=O)n2)ccc1O", "reported.value": "5.1 µM"}
{"molecule": "Cc1cc2c(=O)n(-c3ccc(F)cc3)c(C)nc2c(C(=O)O)c1C", "reported.value": "> 100 µM"}
{"molecule": "CCCCCCOc1ccc(C(=O)NOCc2ccccc2)cc1", "reported.value": "> 100 µM"}
{"molecule": "NC(=O)C1=NNc2ccccc2C(=O)N1c1ccccc1", "reported.value": "> 100 µM"}
{"molecule": "O=[N+]([O-])c1ccc(C2=NOC(c3ccccc3F)N2C23CC4CC(CC(C4)C2)C3)cc1 (centres undefined)", "reported.value": "> 100 µM"}
{"molecule": "COc1ccc(-c2ccc(/C=N/n3c(COc4ccccc4Cl)nn(CN4CCN(C)CC4)c3=S)o2)c([N+](=O)[O-])c1", "reported.value": "69.4 µM"}
{"molecule": "CC1(C2(C)OC(=O)c3ccccc32)OC(=O)c2ccccc21 (centres undefined)", "reported.value": "> 100 µM"}
{"molecule": "ClC1=C(Cl)C(Cl)=C(Cl)C1=C/C=C/c1ccccc1", "reported.value": "0.597 µM"}
{"molecule": "CN1CN(c2ccccc2)C2(CCN(CCCSc3ccccc3NC(=O)/C=C/c3ccccc3)CC2)C1=O", "reported.value": "6.09 µM"}
{"molecule": "CCCCC(C)C1CCC2(C)C=CC(=O)C(C)=C2C1O (centres undefined)", "reported.value": "> 100 µM"}
{"molecule": "Cc1ccc(NC(=O)c2cccc([N+](=O)[O-])c2O)c([N+](=O)[O-])c1", "reported.value": "32 µM"}
{"molecule": "O=S(O)CCCCCSSCCCCSSCCCCCS(=O)O", "reported.value": "> 100 µM"}
{"molecule": "Cc1ccc(S(=O)(=O)NN=C2CCCCCCCCCCC2)cc1", "reported.value": "> 100 µM"}
{"molecule": "COc1cc(C2C(Cl)C(=O)N2NC(=O)c2ccccc2O)ccc1O (centres undefined)", "reported.value": "> 100 µM"}
